# assay.text: Cell Proliferation Assay against the HBL1 Cell Line (AID 651646);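 also: cells exposed to compound for 48 h before reading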
# run.parameters: HBL1 DLBCL cells; at 46.1 µM (top of the series) unless noted
Class membership depends on viability, percent of control alone; the intervals are low = under 70%, mid = from 70% up to 80%, high = 80% and over

>  <compound>
COc1ccc(CC2=NN3C([C@@H](CCc4ccccc4)[C@@H](C)O)=NC(C)C3C(=O)N2)cc1OC (stereo partly drawn)

>  <group.label>
mid

$$$$
>  <compound>
CS(=O)(=O)c1cccc(CNc2nc(Nc3ccc4c(c3)CCC(=O)N4)ncc2C(F)(F)F)c1

>  <group.label>
high

$$$$
>  <compound>
C#Cc1cccc(Nc2ncnc3cc(OCCOC)c(OCCOC)cc23)c1

>  <group.label>
mid

$$$$
>  <compound>
COc1cccc2cc(-c3nc(C4CCC(C(=O)O)CC4)n4ncnc(N)c34)[nH]c12 (stereo not drawn)

>  <group.label>
low

$$$$
>  <compound>
CCCn1c(=O)c2[nH]c(C34CC5CC3C[C@@H](C5)C4)nc2n(CCC)c1=O

>  <group.label>
low

$$$$
>  <compound>
O=C(C1CC1)N1CC[C@@H](Cn2c(-c3ccc(-c4ccc5occc5c4)cc3)nc3cnccc32)C1

>  <group.label>
low

$$$$
>  <compound>
Cc1n[nH]c(C)c1Cc1sc2c(c1C(=O)N1C[C@H](O)CO1)c(=O)n(C)c(=O)n2CC(C)C

>  <group.label>
mid

$$$$
>  <compound>
COc1cc2nccc(Oc3ccc(NC(=O)NC4CC4)c(Cl)c3)c2cc1C(N)=O

>  <group.label>
high

$$$$
>  <compound>
CCc1cncnc1N1CCN(Cc2nc3ccc(C(F)(F)F)cc3[nH]2)CC1

>  <group.label>
high

$$$$
>  <compound>
O=C(OCC#CCSc1nnc(-c2ccc3ccccc3c2)o1)c1cc2ccccc2s1

>  <group.label>
high

$$$$
>  <compound>
OC[C@H](Cc1ccccc1)Nc1nc(Oc2ccc3c(c2)CCC3)nc2c1ncn2Cc1ccc(-c2ccccc2)cc1

>  <group.label>
low

$$$$
>  <compound>
Cc1cnc(Nc2ccc(OCCN3CCCC3)cc2)nc1Nc1cccc(S(=O)(=O)NC(C)(C)C)c1

>  <group.label>
low

$$$$
>  <compound>
CC(C)C[C@H](NC(=O)[C@@H](O)[C@H](N)Cc1ccccc1)C(=O)O

>  <group.label>
high

$$$$
>  <compound>
Fc1ccc(Cl)cc1-c1nc(Nc2ccncc2)c2nccnc2n1

>  <group.label>
high

$$$$
>  <compound>
Cc1cc2c(C(C)C)c(O)c(O)c(C=O)c2c(O)c1-c1c(C)cc2c(C(C)C)c(O)c(O)c(C=O)c2c1O

>  <group.label>
low

$$$$
>  <compound>
COc1cc2c(cc1OC)CN(CCc1ccc(NC(=O)c3cccc4c(=O)c5cccc(OC)c5[nH]c34)cc1)CC2

>  <group.label>
low

$$$$
>  <compound>
OCCC#Cc1nc(-c2ccc(F)cc2)c(-c2ccncc2)n1CCCc1ccccc1

>  <group.label>
low

$$$$
>  <compound>
C[C@@H]1C[C@H]2[C@@H]3CCC4=CC(=O)C=C[C@]4(C)C3(F)[C@@H](O)C[C@]2(C)[C@@]1(O)C(=O)CO (stereo partly drawn)

>  <group.label>
low

$$$$
>  <compound>
Cc1cc([C@@H](C)Nc2ccccc2C(=O)O)c2nc(N3CCOCC3)cc(=O)n2c1

>  <group.label>
low

$$$$
>  <compound>
Clc1ccc(Nc2nnc(Cc3ccncc3)c3ccccc23)cc1

>  <group.label>
low

$$$$
>  <compound>
CCC(C)N(C)C(=O)c1cc2ccccc2c(-c2ccccc2Cl)n1 (stereo not drawn)

>  <group.label>
high

$$$$
>  <compound>
CC(C)OC(=O)C1=CN(C(=O)c2ccc(F)c(F)c2)CC(C)(C)c2c1[nH]c1ccccc21

>  <group.label>
high

$$$$
>  <compound>
NC(=O)C1CCCc2c1[nH]c1ccc(Cl)cc21 (stereo not drawn)

>  <group.label>
mid

$$$$
>  <compound>
COc1ccc(-c2c(-c3ccc(O)cc3O)n[nH]c2C)cc1

>  <group.label>
mid

$$$$
>  <compound>
C[C@H](NC(=O)Cc1cc(F)cc(F)c1)C(=O)N[C@@H]1C(=O)N(C)c2ccccc2-c2ccccc21

>  <group.label>
high

$$$$
>  <compound>
COc1ccc(C2=N[C@H](c3ccc(Cl)cc3)[C@H](c3ccc(Cl)cc3)N2C(=O)N2CCNC(=O)C2)c(OC(C)C)c1

>  <group.label>
low

$$$$
>  <compound>
O=C(O)[C@@H](c1ccc(OCc2ccc3ccccc3n2)cc1)C1CCCC1

>  <group.label>
high

$$$$
>  <compound>
CNC(=O)c1ccccc1Sc1ccc2c(/C=C/c3ccccn3)n[nH]c2c1

>  <group.label>
low

$$$$
>  <compound>
CC1(C)SCCN(S(=O)(=O)c2ccc(OCC#CCO)cc2)[C@@H]1C(=O)NO

>  <group.label>
high

$$$$
>  <compound>
COc1ccc(COc2cc3oc(=O)c4cc(C(C)O)ccc4c3cc2OC)cc1 (stereo not drawn)

>  <group.label>
low

$$$$
>  <compound>
CCn1c(-c2nonc2N)nc2cnc(Oc3cccc(NC(=O)c4ccc(OCCN5CCOCC5)cc4)c3)cc21

>  <group.label>
low

$$$$
>  <compound>
O=C(O)CCc1ccc(NCc2cccc(Oc3ccccc3)c2)cc1

>  <group.label>
high

$$$$
>  <compound>
CN([C@@H](Cc1ccc(OS(=O)(=O)c2cccc3cnccc23)cc1)C(=O)N1CCN(c2ccccc2)CC1)S(=O)(=O)c1cccc2cnccc12

>  <group.label>
high

$$$$

Data provenance: PubChem BioAssay (NCATS)
